Each entry below lists one item and its recorded HLM value.
Experiment notes: Microsomal stability assay, human liver microsomes
Run conditions: human liver microsomes
Your answer is read as µL/min/mg, so omit the unit and give the number.

Solved cases below.
CO[C@H](C)C(=O)N[C@@H](Cc1cc(F)cc(F)c1)[C@H](O)CN[C@H]1CC2(CCC2)Oc2c(-c3ccncc3)cc(CC(C)(C)F)cc21 ... 60
COCC(=O)N[C@@H](Cc1cc(F)cc(-c2nccs2)c1)[C@H](O)CN[C@H]1CC2(CCC2)Oc2ncc(C3CC3)cc21 ... 59
COCC(=O)N[C@@H](Cc1ccc(-c2nccs2)c(F)c1)[C@H](O)CN[C@H]1CC2(CCC2)Oc2ncc(CC(C)(C)C)cc21 ... 57
CO[C@H](C)C(=O)N[C@@H](Cc1cc(F)cc(F)c1)[C@H](O)CN[C@H]1CC2(CCC2)Oc2c1cc(CC(C)C)nc2-c1ccncc1 ... 27
CC(=O)N[C@@H](Cc1cccc(C#N)c1)[C@H](O)CN[C@H]1CC2(CCC2)Oc2c(-c3ccncc3)cc(CC(C)(C)C)cc21 ... 34
CC(=O)N[C@@H](Cc1cccc(-c2ccncc2)c1)[C@H](O)CN[C@H]1CC2(CCC2)Oc2ccc(CC(C)(C)C)cc21 ... 413
CC(=O)N[C@@H](Cc1ccc(F)c(-c2ccncc2)c1)[C@H](O)CN[C@H]1CC2(CCC2)Oc2ccc(CC(C)(C)C)cc21 ... 389
Cc1ccc(CN2CCO[C@@H](C(=O)N[C@@H](Cc3ccc(F)cc3)[C@H](O)CN[C@H]3CC4(CCC4)Oc4ncc(CC(C)(C)C)cc43)C2)cc1 ... 614

Req: Using known records, supply HLM for "CC(=O)N[C@@H](Cc1cc(F)cc(-c2cncs2)c1)[C@H](O)CN[C@H]1CC2(CCC2)Oc2ncc(CC(C)(C)C)cc21"
Resp: 99

Req: Using known records, supply HLM for "CO[C@H](C)C(=O)N[C@@H](Cc1cc(F)cc(F)c1)[C@H](O)CN[C@H]1CC2(CCC2)Oc2c1cc(CC(C)C)nc2Cl"
Resp: 921

Req: Using known records, supply HLM for "CO[C@H](C)C(=O)N[C@@H](Cc1ccc(O)c(O)c1)[C@H](O)CN[C@H]1CC2(CCC2)Oc2ncc(CC(C)(C)C)cc21"
Resp: 171

Req: Using known records, supply HLM for "CC(=O)N[C@@H](Cc1ccc(F)c(-n2ccnc2)c1)[C@H](O)CN[C@H]1CC2(CCC2)Oc2ncc(CC(C)(C)C)cc21"
Resp: 22

###

Experiment notes: Microsomal stability assay, human liver microsomes;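 further: pooled human liver microsomes at 0.25 mg/mL with 1 µM compound and NADPH at 37 °C, pH 7.4, for 30 min, unchanged parent quantified by LC-MS/MS against the 0 min sample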
Run conditions: human liver microsomal data
Each entry below lists one item and its recorded HLM value.
Your answer is read as µL/min/mg, so omit the unit and give the number.

CCCc1cnc2c(c1)[C@@H](NC[C@@H](O)[C@H](Cc1cc(F)cc(-c3nccs3)c1)NC(=O)COC)CC1(CCC1)O2 [compound 865] ... 125
CO[C@H](C)C(=O)N[C@@H](Cc1cc(F)cc(-c2nccs2)c1)[C@H](O)CNC1CC2(CCC2)Oc2ncc(CC(C)(F)F)cc21 (stereo partly drawn) [compound 765] ... 35

Now, please, on to the next molecule.
Req: Using known records, supply HLM for CC#Cc1cccc(C[C@H](NC(=O)COC)[C@H](O)CN[C@H]2CC3(CCC3)Oc3ncc(CC(C)C)cc32)c1 [compound 802]
Resp: 60.5
